assay: Cytotoxicity against human Hep3B cells assessed as cell viability at 9 to 150 uM measured after 48 hrs by MTT assay relative to control; assay type: cell-based, Hep 3B2; settings: read-out: Activity
Field: viability at 48 h, up to 150 µM. Provide a value for each of the compounds that follow.

For the compound O=C(NCCCCNC(=O)c1ccc([N+](=O)[O-])cc1)c1ccc([N+](=O)[O-])cc1 , give its measured viability at 48 h, up to 150 µM value.
> 80%

For the compound O=C(NC1CCCCC1NC(=O)c1ccc([N+](=O)[O-])cc1)c1ccc([N+](=O)[O-])cc1 (stereo not drawn) , give its measured viability at 48 h, up to 150 µM value.
> 80%

For the compound O=C(c1ccc([N+](=O)[O-])cc1)N1CCOCC1 , give its measured viability at 48 h, up to 150 µM value.
> 80%

For the compound CCN(C(C)=O)c1cc([N+](=O)[O-])ccc1Br , give its measured viability at 48 h, up to 150 µM value.
> 80%

For the compound O=C(NCCNC(=O)c1ccc([N+](=O)[O-])cc1)c1ccc([N+](=O)[O-])cc1 , give its measured viability at 48 h, up to 150 µM value.
51 to 80%

For the compound CC(=O)Nc1cc([N+](=O)[O-])ccc1Br , give its measured viability at 48 h, up to 150 µM value.
> 80%

For the compound CC(=O)Nc1cc([N+](=O)[O-])cc([N+](=O)[O-])c1 , give its measured viability at 48 h, up to 150 µM value.
> 80%

For the compound CCN(C(C)=O)c1cc([N+](=O)[O-])cc([N+](=O)[O-])c1 , give its measured viability at 48 h, up to 150 µM value.
51 to 80%

For the compound CCCCN(CCCC)c1c([N+](=O)[O-])cc(C(=O)Nc2ccc([N+](=O)[O-])cc2)cc1[N+](=O)[O-] , give its measured viability at 48 h, up to 150 µM value.
< 50%

For the compound CCCCN(CCCC)c1c([N+](=O)[O-])cc(C(=O)Nc2ccc(Cl)cc2)cc1[N+](=O)[O-] , give its measured viability at 48 h, up to 150 µM value.
< 50%

For the compound O=C(c1ccc([N+](=O)[O-])cc1)N1CCN(C(=O)c2ccc([N+](=O)[O-])cc2)CC1 , give its measured viability at 48 h, up to 150 µM value.
> 80%

For the compound O=C(Nc1cccc(NC(=O)c2ccc([N+](=O)[O-])cc2)c1)c1ccc([N+](=O)[O-])cc1 , give its measured viability at 48 h, up to 150 µM value.
> 80%

For the compound O=C(NC1CCC(NC(=O)c2ccc([N+](=O)[O-])cc2)CC1)c1ccc([N+](=O)[O-])cc1 (stereo not drawn) , give its measured viability at 48 h, up to 150 µM value.
> 80%

For the compound CN(C)c1c([N+](=O)[O-])cc(C(=O)Nc2ccc(Cl)cc2)cc1[N+](=O)[O-] , give its measured viability at 48 h, up to 150 µM value.
< 50%

For the compound O=C(NC1CCCC(NC(=O)c2ccc([N+](=O)[O-])cc2)C1)c1ccc([N+](=O)[O-])cc1 (stereo not drawn) , give its measured viability at 48 h, up to 150 µM value.
> 80%

For the compound O=C(c1ccc([N+](=O)[O-])cc1)N1CCCCC1 , give its measured viability at 48 h, up to 150 µM value.
> 80%

For the compound O=C(Nc1ccccc1NC(=O)c1ccc([N+](=O)[O-])cc1)c1ccc([N+](=O)[O-])cc1 , give its measured viability at 48 h, up to 150 µM value.
> 80%

For the compound O=C(Nc1ccc(NC(=O)c2ccc([N+](=O)[O-])cc2)cc1)c1ccc([N+](=O)[O-])cc1 , give its measured viability at 48 h, up to 150 µM value.
51 to 80%

----------
molecular target: Putative nitroreductase (Staphylococcus saprophyticus subsp. saprophyticus (strain ATCC 15305 / DSM20229 / NCIMB 8711 / NCTC 7292 / S-41)); assay: Substrate activity at Staphylococcus saprophyticus nitroreductase expressed in Escherichia coli assessed as retention time in the presence of NADPH at 100 uM by HPLC analysis (0 to 5 mins at 20% ACN, 25 to 35 min at 80% ACN, 40 to 45 min at 20% ACN); type: ADME
Sequence (Q4A0P1 whole entry): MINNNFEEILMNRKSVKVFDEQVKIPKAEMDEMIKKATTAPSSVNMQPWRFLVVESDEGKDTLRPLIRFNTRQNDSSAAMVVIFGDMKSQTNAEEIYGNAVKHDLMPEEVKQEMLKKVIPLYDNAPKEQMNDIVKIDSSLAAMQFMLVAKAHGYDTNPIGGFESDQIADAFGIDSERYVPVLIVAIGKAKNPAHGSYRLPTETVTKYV
property: Retention time

For the compound O=C(NC1CCCC(NC(=O)c2ccc([N+](=O)[O-])cc2)C1)c1ccc([N+](=O)[O-])cc1 (stereo unspecified) , give its measured Retention time value.
19.4 to 20.1 min

----------
target: Putative nitroreductase (Staphylococcus saprophyticus subsp. saprophyticus (strain ATCC 15305 / DSM20229 / NCIMB 8711 / NCTC 7292 / S-41)); assay: Prodrug conversion assessed Staphylococcus saprophyticus nitroreductase expressed in Escherichia coli-mediated PP (4-(hydroxyamino)phenyl)(piperidin-1-yl)methanone metabolite formation by measuring retention time of metabolite at 100 uM incubated for 15 mins by HPLC analysis; type: ADME; details: 0.25 h
property: Retention time (min)
Kindly provide the numeric value in min only, without the unit symbol.

For the compound O=C(c1ccc([N+](=O)[O-])cc1)N1CCOCC1 , give its measured Retention time value.
16

----------
target: Staphylococcus saprophyticus nitroreductase (Staphylococcus saprophyticus subsp. saprophyticus (strain ATCC 15305 / DSM20229 / NCIMB 8711 / NCTC 7292 / S-41)); assay: Substrate activity at Staphylococcus saprophyticus nitroreductase expressed in Escherichia coli assessed as half life […] at 100 uM by HPLC analysis (0 to 5 mins at 20 % ACN, 15 to 22 min at 80% ACN, 27-32 AT 20% ACN); assay type: ADME
Sequence (Q4A0P1 whole entry): as above
Field: half-life. Provide a value for each of the compounds that follow.

For the compound CC(=O)Nc1cc([N+](=O)[O-])ccc1Br , give its measured half-life value.
< 12 min

For the compound O=C(NCCNC(=O)c1ccc([N+](=O)[O-])cc1)c1ccc([N+](=O)[O-])cc1 , give its measured half-life value.
< 72 min

For the compound O=C(NC1CCCC(NC(=O)c2ccc([N+](=O)[O-])cc2)C1)c1ccc([N+](=O)[O-])cc1 (configuration not stated) , give its measured half-life value.
< 120 min

For the compound O=C(c1ccc([N+](=O)[O-])cc1)N1CCOCC1 , give its measured half-life value.
< 15 min

For the compound O=C(c1ccc([N+](=O)[O-])cc1)N1CCCCC1 , give its measured half-life value.
< 90 min

For the compound O=C(NC1CCCCC1NC(=O)c1ccc([N+](=O)[O-])cc1)c1ccc([N+](=O)[O-])cc1 (configuration not stated) , give its measured half-life value.
< 31.2 min

For the compound CCN(C(C)=O)c1cc([N+](=O)[O-])ccc1Br , give its measured half-life value.
< 6 min

----------
experiment: Cytotoxicity against human PC3 cells assessed as cell viability at 9 to 150 uM measured after 48 hrs by MTT assay relative to control; type: cell-based, PC-3; settings: read-out: Activity
property: viability at 48 h, up to 150 µM

For the compound O=C(c1ccc([N+](=O)[O-])cc1)N1CCOCC1 , give its measured viability at 48 h, up to 150 µM value.
> 80%

For the compound O=C(NC1CCC(NC(=O)c2ccc([N+](=O)[O-])cc2)CC1)c1ccc([N+](=O)[O-])cc1 (stereo not given) , give its measured viability at 48 h, up to 150 µM value.
> 80%

For the compound O=C(NCCNC(=O)c1ccc([N+](=O)[O-])cc1)c1ccc([N+](=O)[O-])cc1 , give its measured viability at 48 h, up to 150 µM value.
> 80%

For the compound CC(=O)Nc1cc([N+](=O)[O-])cc([N+](=O)[O-])c1 , give its measured viability at 48 h, up to 150 µM value.
> 80%

For the compound O=C(NC1CCCC(NC(=O)c2ccc([N+](=O)[O-])cc2)C1)c1ccc([N+](=O)[O-])cc1 (stereo not given) , give its measured viability at 48 h, up to 150 µM value.
51 to 80%

----------
assay: Cytotoxicity against human PC3 cells assessed as cell viability at 9 to 150 uM measured after 48 hrs by MTT assay relative to control; assay type: cell-based, PC-3; details: read-out: Activity
Field: viability at 48 h, up to 150 µM. Provide a value for each of the compounds that follow.

For the compound CCN(C(C)=O)c1cc([N+](=O)[O-])cc([N+](=O)[O-])c1 , give its measured viability at 48 h, up to 150 µM value.
> 80%

For the compound O=C(Nc1ccc(NC(=O)c2ccc([N+](=O)[O-])cc2)cc1)c1ccc([N+](=O)[O-])cc1 , give its measured viability at 48 h, up to 150 µM value.
> 80%

For the compound CCCCN(CCCC)c1c([N+](=O)[O-])cc(C(=O)Nc2ccc([N+](=O)[O-])cc2)cc1[N+](=O)[O-] , give its measured viability at 48 h, up to 150 µM value.
< 50%

For the compound CCN(C(C)=O)c1cc([N+](=O)[O-])ccc1Br , give its measured viability at 48 h, up to 150 µM value.
> 80%

For the compound O=C(NC1CCCCC1NC(=O)c1ccc([N+](=O)[O-])cc1)c1ccc([N+](=O)[O-])cc1 (centres undefined) , give its measured viability at 48 h, up to 150 µM value.
> 80%

For the compound O=C(Nc1cccc(NC(=O)c2ccc([N+](=O)[O-])cc2)c1)c1ccc([N+](=O)[O-])cc1 , give its measured viability at 48 h, up to 150 µM value.
> 80%

For the compound O=C(c1ccc([N+](=O)[O-])cc1)N1CCCCC1 , give its measured viability at 48 h, up to 150 µM value.
> 80%

For the compound CC(=O)Nc1cc([N+](=O)[O-])ccc1Br , give its measured viability at 48 h, up to 150 µM value.
> 80%

For the compound CN(C)c1c([N+](=O)[O-])cc(C(=O)Nc2ccc(Cl)cc2)cc1[N+](=O)[O-] , give its measured viability at 48 h, up to 150 µM value.
< 50%
